# target-desc: NLRP3 inflammasome (Homo sapiens)
# Construct: endogenous in cells
# Sequence (Q96P20 whole entry): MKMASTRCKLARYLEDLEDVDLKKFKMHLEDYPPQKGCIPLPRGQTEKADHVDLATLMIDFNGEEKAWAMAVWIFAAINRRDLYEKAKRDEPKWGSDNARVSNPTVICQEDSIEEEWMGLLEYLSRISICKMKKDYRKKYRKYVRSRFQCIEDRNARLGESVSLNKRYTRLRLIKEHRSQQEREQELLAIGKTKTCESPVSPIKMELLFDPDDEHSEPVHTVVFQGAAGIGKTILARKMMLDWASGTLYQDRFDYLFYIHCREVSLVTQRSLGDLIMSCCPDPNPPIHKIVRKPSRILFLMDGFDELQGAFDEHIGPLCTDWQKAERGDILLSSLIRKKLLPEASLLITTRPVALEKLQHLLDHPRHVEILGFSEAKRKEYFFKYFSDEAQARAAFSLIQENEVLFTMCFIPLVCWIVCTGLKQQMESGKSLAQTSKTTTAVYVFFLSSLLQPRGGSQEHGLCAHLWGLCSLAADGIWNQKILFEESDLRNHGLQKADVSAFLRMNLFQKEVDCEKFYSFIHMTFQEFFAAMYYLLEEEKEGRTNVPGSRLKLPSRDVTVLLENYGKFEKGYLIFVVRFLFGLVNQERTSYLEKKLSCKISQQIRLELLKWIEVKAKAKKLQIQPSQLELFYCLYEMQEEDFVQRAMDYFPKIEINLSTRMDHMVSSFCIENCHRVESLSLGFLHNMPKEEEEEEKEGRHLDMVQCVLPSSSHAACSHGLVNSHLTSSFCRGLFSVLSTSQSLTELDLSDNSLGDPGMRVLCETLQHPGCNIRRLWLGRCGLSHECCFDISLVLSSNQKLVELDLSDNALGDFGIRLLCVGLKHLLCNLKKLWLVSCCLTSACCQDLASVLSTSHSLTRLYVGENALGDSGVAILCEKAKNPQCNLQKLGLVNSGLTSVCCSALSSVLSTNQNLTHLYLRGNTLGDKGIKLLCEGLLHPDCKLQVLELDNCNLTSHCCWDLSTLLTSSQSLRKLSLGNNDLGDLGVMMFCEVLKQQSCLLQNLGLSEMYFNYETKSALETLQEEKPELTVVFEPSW
# experimental-details: IL-1β secretion assay (NLRP3 IC50) in LPS-primed, nigericin-activated THP-1 cells, HTRF
# condition-label: monocytic THP-1 cells; LPS 10 ng/mL 3 h priming, then compound + nigericin 10 μM 2 h; relative IC50, 10 concentrations, geometric mean
quantity: IC50 (nM)

Reference set (3 entries):
Which measured IC50 value corresponds to Cc1cc(C(F)(F)F)cc(O)c1-c1ccc(N2CCCC(CO)C2=O)nn1 (stereo not drawn) [Example 273] ?
456

Dear colleague, I am looking for the recorded IC50 of the following molecule: OC[C@H]1CCCN(c2ccc(-c3c(O)cc(Cl)cc3Cl)nn2)C1 [Example 34]
95

I have this molecule here, Cc1cc(C(F)(F)F)cc(O)c1-c1ccc(N2CC3CCC2CN(C)C3)nn1 (stereo not drawn) [Example 417] , and I need its recorded IC50.
716

[a] Cc1cc(C)c(-c2ccc(N3CCC[C@@H]4CCN(C)C[C@@H]43)nn2)c(O)c1 [Example 519]
[b] OC[C@@H]1CN(c2ccc(-c3c(O)cccc3Cl)nn2)CCO1 [Example 48]
Smaller IC50 value? Options are a and b Reply with the label of the item you choose.
a

[I] Cc1cc(C)c(-c2ccc(N3CCO[C@@H](CN)C3)nn2)c(O)c1 [Example 87]
[II] Cc1cc(C)c(-c2nnc(N3CCO[C@H](CO)C3)cc2CO)c(O)c1 [Example 186]
[III] CCc1cc(C)c(-c2ccc(N3CCO[C@H](CO)C3)nn2)c(O)c1 [Example 245]
Arrange the 3 entries by IC50 so the values rise. Output spec: a listing of the labels in the requested order.
III, I, II
